Assign residual activity to each entry below.
tested.target: CDK6 CCND1 (human) (UniProt Q00534+P24385)
Sequence (P24385 whole entry, looked up): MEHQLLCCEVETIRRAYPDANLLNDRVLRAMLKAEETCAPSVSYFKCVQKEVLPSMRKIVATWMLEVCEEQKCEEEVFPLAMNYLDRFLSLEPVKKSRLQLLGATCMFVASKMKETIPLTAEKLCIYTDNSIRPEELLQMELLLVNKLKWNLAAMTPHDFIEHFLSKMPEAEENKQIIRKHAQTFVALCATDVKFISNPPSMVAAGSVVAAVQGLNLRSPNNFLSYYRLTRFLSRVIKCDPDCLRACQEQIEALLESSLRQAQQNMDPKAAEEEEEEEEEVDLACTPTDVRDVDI
Sequence (Q00534 whole entry, looked up): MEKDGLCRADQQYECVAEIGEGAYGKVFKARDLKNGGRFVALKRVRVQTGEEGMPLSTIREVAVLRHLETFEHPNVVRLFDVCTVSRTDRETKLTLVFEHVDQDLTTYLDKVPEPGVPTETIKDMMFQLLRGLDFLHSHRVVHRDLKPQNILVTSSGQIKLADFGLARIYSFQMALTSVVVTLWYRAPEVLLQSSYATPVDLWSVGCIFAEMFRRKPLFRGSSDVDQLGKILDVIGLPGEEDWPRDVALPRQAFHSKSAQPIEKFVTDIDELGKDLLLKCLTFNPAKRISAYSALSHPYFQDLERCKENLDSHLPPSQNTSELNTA
assay.remarks: radiometric filter-binding kinase assay, Kinase HotSpot
experimental.parameters: compound 0.5 µM; ATP 10 µM
One number for each entry, in %.

Check out these entries, answers already filled in.
1. CN(C)S(=O)(=O)c1ccc2c(c1)/C(=C/c1cc3c([nH]1)CCCC3)C(=O)N2 92.5
2. CN(C)CCCn1cc(C2=C(c3c[nH]c4ccccc34)C(=O)NC2=O)c2ccccc21 58.3
3. CC(C)(C)c1cc(C=C(C#N)C#N)cc(Br)c1O 99.1
4. COc1cc2ncnc(Nc3ccc(OCc4ccccc4)cc3)c2cc1OC 96.7
5. Fc1ccc(-c2nc3n(c2-c2ccncc2)CCS3)cc1 97
6. Cc1nc(-c2ccccc2)c(-c2ccncc2)o1 101
7. COc1cc(Nc2c(C#N)cnc3cc(OCCCN4CCN(C)CC4)c(OC)cc23)c(Cl)cc1Cl 99.4
8. N#Cc1c[nH]c2c[nH]/c(=N\Cc3cccnc3)cc2/c1=N\c1ccc(F)c(Cl)c1 92.2

Provide each entry's residual activity from the list below.
1. Cc1cn(-c2cc(NC(=O)c3ccc(C)c(Nc4nccc(-c5cccnc5)n4)c3)cc(C(F)(F)F)c2)cn1
2. COc1cc2ncnc(Nc3ccc(Oc4ccccc4)cc3)c2cc1OC

Result:
[97.1, 95.1]

* * *

Assign residual activity to each entry below.
tested.target: STK25 (human) (UniProt O00506)
Sequence (O00506 whole entry, looked up): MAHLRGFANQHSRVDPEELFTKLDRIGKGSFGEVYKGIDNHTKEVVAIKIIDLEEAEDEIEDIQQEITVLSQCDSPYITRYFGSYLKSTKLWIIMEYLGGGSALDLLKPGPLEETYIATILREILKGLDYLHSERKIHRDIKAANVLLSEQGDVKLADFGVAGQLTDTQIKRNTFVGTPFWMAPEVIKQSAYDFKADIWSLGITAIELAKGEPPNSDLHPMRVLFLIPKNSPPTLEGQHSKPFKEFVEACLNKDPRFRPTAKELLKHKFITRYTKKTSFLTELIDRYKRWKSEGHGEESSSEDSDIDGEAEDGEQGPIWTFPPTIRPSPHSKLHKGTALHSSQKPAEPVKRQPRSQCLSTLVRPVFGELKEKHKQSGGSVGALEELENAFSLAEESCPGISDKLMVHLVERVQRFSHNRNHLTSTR
assay.remarks: radiometric filter-binding kinase assay, Kinase HotSpot
experimental.parameters: compound 0.5 µM; ATP 10 µM
Give bare numbers, in %.

1) CN(C)CCCn1cc(C2=C(c3c[nH]c4ccccc34)C(=O)NC2=O)c2ccccc21 69.7

Provide each entry's residual activity from the list below.
1. COc1cc(Nc2c(C#N)cnc3cc(OCCCN4CCN(C)CC4)c(OC)cc23)c(Cl)cc1Cl
2. O=C1C(Cl)=C(N2C(=O)CCC2=O)C(=O)c2ccccc21
3. C[C@@H]1CCN(C(=O)CC#N)C[C@@H]1N(C)c1ncnc2[nH]ccc12
4. c1ccc2c(-c3ccncc3)c[nH]c2c1

Result:
1: 10.1; 2: 107; 3: 97.2; 4: 117

Provide each entry's residual activity from the list below.
1. O=C1c2ccccc2-c2nc3nnnn3nc21
2. CN(C)S(=O)(=O)c1ccc2c(c1)/C(=C/c1cc3c([nH]1)CCCC3)C(=O)N2
3. O=C1Nc2ccc(Br)cc2/C1=C\c1cc2c([nH]1)CCCC2
4. O=C(c1cc2cc(O)ccc2[nH]1)c1cc2cc(O)ccc2[nH]1

Result:
[101, 79.6, 102, 105]

* * *

Assign residual activity to each entry below.
tested.target: CDK9 CCNT1 (human) (UniProt P50750+O60563)
Sequence (O60563 whole entry, looked up): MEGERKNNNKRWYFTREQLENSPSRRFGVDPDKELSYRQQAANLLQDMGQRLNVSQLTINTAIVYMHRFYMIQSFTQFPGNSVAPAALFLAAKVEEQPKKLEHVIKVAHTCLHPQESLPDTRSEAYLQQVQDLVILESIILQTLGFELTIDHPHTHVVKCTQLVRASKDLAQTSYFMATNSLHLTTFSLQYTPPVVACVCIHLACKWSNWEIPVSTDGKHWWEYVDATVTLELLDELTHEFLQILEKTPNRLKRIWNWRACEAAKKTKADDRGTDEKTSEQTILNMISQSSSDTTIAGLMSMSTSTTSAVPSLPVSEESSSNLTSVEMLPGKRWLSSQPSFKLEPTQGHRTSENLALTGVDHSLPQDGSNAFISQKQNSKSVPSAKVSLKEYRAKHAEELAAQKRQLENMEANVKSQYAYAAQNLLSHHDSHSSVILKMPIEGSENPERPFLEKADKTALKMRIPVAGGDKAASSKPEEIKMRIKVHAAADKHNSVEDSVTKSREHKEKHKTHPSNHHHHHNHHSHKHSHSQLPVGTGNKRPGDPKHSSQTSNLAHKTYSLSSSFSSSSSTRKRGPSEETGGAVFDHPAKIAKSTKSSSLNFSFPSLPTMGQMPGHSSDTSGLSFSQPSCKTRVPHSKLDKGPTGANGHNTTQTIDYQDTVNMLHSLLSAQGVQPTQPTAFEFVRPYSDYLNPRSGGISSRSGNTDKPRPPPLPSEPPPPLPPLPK
Sequence (P50750 whole entry, looked up): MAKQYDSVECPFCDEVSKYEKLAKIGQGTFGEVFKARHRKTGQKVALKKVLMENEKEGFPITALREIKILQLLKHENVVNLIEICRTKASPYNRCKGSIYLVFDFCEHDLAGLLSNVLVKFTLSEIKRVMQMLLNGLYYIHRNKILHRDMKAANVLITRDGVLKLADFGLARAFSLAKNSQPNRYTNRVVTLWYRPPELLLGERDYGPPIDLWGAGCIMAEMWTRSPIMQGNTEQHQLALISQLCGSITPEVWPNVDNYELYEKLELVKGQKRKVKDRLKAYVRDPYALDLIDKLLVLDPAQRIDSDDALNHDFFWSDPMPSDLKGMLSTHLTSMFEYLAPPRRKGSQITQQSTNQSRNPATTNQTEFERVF
assay.remarks: radiometric filter-binding kinase assay, Kinase HotSpot
experimental.parameters: compound 0.5 µM; ATP 10 µM
Give bare numbers, in %.

Provide each entry's residual activity from the list below.
1. O=C1c2ccccc2-c2nc3nnnn3nc21
2. COc1ccc2c(c1)/C(=C/c1cnc[nH]1)C(O)=N2
3. O=C1Nc2ccc(Br)cc2/C1=C\c1cc2c([nH]1)CCCC2
4. N#C/C(=C\c1ccc(O)c(O)c1)C(=O)NCc1ccccc1
5. O=C1c2ccccc2-c2n[nH]c3cccc1c23
6. NC(=O)c1cccc(-c2cc(Nc3ccc(OC(F)(F)F)cc3)ncn2)c1
7. COc1ccc2c(c1)c(C1=C(c3c[nH]c4ccccc34)C(=O)NC1=O)cn2CCCN(C)C
8. CN(C)S(=O)(=O)c1ccc2c(c1)/C(=C/c1cc3c([nH]1)CCCC3)C(=O)N2

Result:
1. 97
2. 67.4
3. 90
4. 74.9
5. 99.3
6. 82.2
7. 69.7
8. 95.9

Provide each entry's residual activity from the list below.
1. CC(C)(C)c1cc(C=C(C#N)C#N)cc(Br)c1O
2. Cc1cncc2cccc(S(=O)(=O)N3CCCN(C(=O)CN)C[C@H]3C)c12
3. C[C@@H]1CCN(C(=O)CC#N)C[C@@H]1N(C)c1ncnc2[nH]ccc12
4. NCCNc1ncc(C(N)=O)c(Nc2cccc(C(F)(F)F)c2)n1

Result:
95.4
86.7
100
82

Provide each entry's residual activity from the list below.
1. Cc1cn(-c2cc(NC(=O)c3ccc(C)c(Nc4nccc(-c5cccnc5)n4)c3)cc(C(F)(F)F)c2)cn1
2. Cc1nc(-c2ccccc2)c(-c2ccncc2)o1
3. COc1cc2ncnc(Nc3ccc(Oc4ccccc4)cc3)c2cc1OC
4. Ic1cccc(CSc2nnc(-c3ccncc3)o2)c1
5. N#Cc1c[nH]c2c[nH]/c(=N\Cc3cccnc3)cc2/c1=N\c1ccc(F)c(Cl)c1
6. CN(C)CCCn1cc(C2=C(c3c[nH]c4ccccc34)C(=O)NC2=O)c2ccccc21
7. COc1ccc(S(=O)(=O)N(CCO)c2ccccc2CN(C)C/C=C/c2ccc(Cl)cc2)cc1

Result:
[94.7, 84.6, 86.7, 109, 91.2, 65.3, 103]

* * *

tested.target: SGK2 (human)
assay.remarks: radiometric filter-binding kinase assay, Kinase HotSpot
experimental.parameters: compound 0.5 µM; ATP 10 µM
quantity.measured: residual activity (%)
Give bare numbers, in %.

1) COc1ccc(C(=O)Nc2sc3c(c2C(N)=O)CCCC3)cc1OC 100
2) O=C1NC(=O)c2c1c1c3ccccc3[nH]c1n1cncc21 75.3
3) N#Cc1c[nH]c2c[nH]/c(=N\Cc3cccnc3)cc2/c1=N\c1ccc(F)c(Cl)c1 98.5
4) NC(=O)c1cccc(-c2cc(Nc3ccc(OC(F)(F)F)cc3)ncn2)c1 116
5) COc1ccc(S(=O)(=O)N(CCO)c2ccccc2CN(C)C/C=C/c2ccc(Cl)cc2)cc1 99.8
6) COc1ccc2c(c1)/C(=C/c1cnc[nH]1)C(O)=N2 71.4

Provide each entry's residual activity from the list below.
1. COc1cc2ncnc(Nc3ccc(OCc4ccccc4)cc3)c2cc1OC
2. c1ccc2c(-c3ccncc3)c[nH]c2c1

Result:
100
91

Reported residual activity ( Fc1ccc(-c2nc3n(c2-c2ccncc2)CCS3)cc1 ) = 105

* * *

tested.target: DYRK4 (human) (UniProt Q9NR20)
Sequence (Q9NR20 whole entry, looked up): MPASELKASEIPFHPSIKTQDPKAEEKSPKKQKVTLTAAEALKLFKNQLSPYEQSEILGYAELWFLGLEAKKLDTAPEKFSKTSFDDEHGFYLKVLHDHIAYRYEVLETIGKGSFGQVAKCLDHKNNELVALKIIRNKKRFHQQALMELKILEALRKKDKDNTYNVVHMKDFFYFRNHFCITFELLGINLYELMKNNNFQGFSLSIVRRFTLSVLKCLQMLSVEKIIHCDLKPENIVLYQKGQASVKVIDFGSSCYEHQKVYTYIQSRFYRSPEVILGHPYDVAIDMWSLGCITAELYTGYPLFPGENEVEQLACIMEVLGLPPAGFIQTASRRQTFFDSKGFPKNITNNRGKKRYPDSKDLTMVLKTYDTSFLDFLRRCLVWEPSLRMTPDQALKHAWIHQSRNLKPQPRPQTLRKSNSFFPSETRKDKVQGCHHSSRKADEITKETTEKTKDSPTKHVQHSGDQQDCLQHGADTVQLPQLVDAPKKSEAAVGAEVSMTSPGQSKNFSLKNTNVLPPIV
assay.remarks: radiometric filter-binding kinase assay, Kinase HotSpot
experimental.parameters: compound 0.5 µM; ATP 10 µM
quantity.measured: residual activity (%)
One number for each entry, in %.

Check out these entries, answers already filled in.
1) O=C1NC(=O)c2c1c1c3ccccc3[nH]c1n1cncc21 107
2) O=C(c1cc2cc(O)ccc2[nH]1)c1cc2cc(O)ccc2[nH]1 99.7
3) COc1ccc(S(=O)(=O)N(CCO)c2ccccc2CN(C)C/C=C/c2ccc(Cl)cc2)cc1 99.6
4) O=C1C(Cl)=C(N2C(=O)CCC2=O)C(=O)c2ccccc21 94.1
5) COc1cc2ncnc(Nc3ccc(OCc4ccccc4)cc3)c2cc1OC 97.6

Reported residual activity ( Ic1cccc(CSc2nnc(-c3ccncc3)o2)c1 ) = 98.5

* * *

tested.target: MAP3K5 (human) (UniProt Q99683)
Sequence (Q99683 whole entry, looked up): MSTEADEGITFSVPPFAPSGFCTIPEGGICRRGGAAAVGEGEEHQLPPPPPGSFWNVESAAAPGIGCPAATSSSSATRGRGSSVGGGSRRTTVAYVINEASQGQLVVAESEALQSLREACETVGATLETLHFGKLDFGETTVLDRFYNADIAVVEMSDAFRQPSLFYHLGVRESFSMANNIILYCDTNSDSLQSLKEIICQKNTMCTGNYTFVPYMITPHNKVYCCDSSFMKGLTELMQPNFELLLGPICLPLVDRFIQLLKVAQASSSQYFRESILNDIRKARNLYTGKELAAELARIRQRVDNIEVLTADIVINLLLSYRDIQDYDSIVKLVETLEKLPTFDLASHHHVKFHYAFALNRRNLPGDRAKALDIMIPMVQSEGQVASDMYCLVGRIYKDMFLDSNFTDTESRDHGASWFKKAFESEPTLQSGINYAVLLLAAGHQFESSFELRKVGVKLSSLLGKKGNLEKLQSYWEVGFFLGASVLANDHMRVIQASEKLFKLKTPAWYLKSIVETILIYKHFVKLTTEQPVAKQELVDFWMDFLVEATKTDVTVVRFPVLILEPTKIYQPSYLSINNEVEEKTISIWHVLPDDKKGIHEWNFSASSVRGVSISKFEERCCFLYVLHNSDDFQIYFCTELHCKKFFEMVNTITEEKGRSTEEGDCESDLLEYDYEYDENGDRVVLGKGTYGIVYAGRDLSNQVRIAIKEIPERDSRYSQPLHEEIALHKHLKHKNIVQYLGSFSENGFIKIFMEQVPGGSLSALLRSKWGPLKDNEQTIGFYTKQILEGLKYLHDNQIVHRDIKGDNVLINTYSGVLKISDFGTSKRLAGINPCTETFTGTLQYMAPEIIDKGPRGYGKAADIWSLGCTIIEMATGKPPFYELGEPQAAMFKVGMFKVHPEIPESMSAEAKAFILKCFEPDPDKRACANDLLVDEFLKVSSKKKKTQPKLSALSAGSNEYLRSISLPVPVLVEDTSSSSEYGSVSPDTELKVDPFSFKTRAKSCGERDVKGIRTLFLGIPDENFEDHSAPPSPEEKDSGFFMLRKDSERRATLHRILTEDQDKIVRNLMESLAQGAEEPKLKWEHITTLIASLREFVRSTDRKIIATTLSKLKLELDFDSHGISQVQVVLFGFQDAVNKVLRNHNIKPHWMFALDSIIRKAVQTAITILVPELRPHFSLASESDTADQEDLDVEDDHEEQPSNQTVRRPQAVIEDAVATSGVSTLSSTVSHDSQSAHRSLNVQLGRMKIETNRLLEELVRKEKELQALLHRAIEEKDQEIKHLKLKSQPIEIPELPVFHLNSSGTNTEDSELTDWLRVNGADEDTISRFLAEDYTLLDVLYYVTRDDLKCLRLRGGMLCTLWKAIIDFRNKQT
assay.remarks: radiometric filter-binding kinase assay, Kinase HotSpot
experimental.parameters: compound 0.5 µM; ATP 10 µM
quantity.measured: residual activity (%)
One number for each entry, in %.

Check out these entries, answers already filled in.
1) O=C1C(Cl)=C(N2C(=O)CCC2=O)C(=O)c2ccccc21 99.1
2) C[C@@H]1CCN(C(=O)CC#N)C[C@@H]1N(C)c1ncnc2[nH]ccc12 97.8
3) COc1ccc2c(c1)/C(=C/c1cnc[nH]1)C(O)=N2 103
4) NC(=O)c1cccc(-c2cc(Nc3ccc(OC(F)(F)F)cc3)ncn2)c1 90.3
5) COc1ccc2c(c1)c(C1=C(c3c[nH]c4ccccc34)C(=O)NC1=O)cn2CCCN(C)C 95.1
6) COc1cc(Nc2c(C#N)cnc3cc(OCCCN4CCN(C)CC4)c(OC)cc23)c(Cl)cc1Cl 95.7
7) Ic1cccc(CSc2nnc(-c3ccncc3)o2)c1 91.7
8) CS(=O)(=O)CCNCc1ccc(-c2ccc3ncnc(Nc4ccc(OCc5cccc(F)c5)c(Cl)c4)c3c2)o1 105
9) Cc1nc(-c2ccccc2)c(-c2ccncc2)o1 102
10) Cn1c2ccccc2c2c3c(c4c5ccccc5n(CCC#N)c4c21)CNC3=O 49.8

Provide each entry's residual activity from the list below.
1. CCCCc1c(-c2ccc(OC)cc2)[nH]c2nccnc12
2. Cc1cccc(-c2nc(C(C)(C)C)[nH]c2-c2ccc3c(c2)OCO3)n1
3. COc1cc2ncnc(Nc3ccc(Oc4ccccc4)cc3)c2cc1OC

Result:
1. 95
2. 103
3. 107

Provide each entry's residual activity from the list below.
1. CC(C)(C)c1cc(C=C(C#N)C#N)cc(Br)c1O
2. N#C/C(=C\c1ccc(O)c(O)c1)C(=O)NCc1ccccc1
3. N#Cc1c[nH]c2c[nH]/c(=N\Cc3cccnc3)cc2/c1=N\c1ccc(F)c(Cl)c1
4. COc1cc2ncnc(Nc3ccc(OCc4ccccc4)cc3)c2cc1OC
5. c1ccc2c(-c3ccncc3)c[nH]c2c1
6. O=C1Nc2ccc(Br)cc2/C1=C\c1cc2c([nH]1)CCCC2
7. CN(C)c1ccc(/C=C2\C(=O)Nc3ccccc32)cc1

Result:
1. 100
2. 104
3. 106
4. 97.8
5. 109
6. 101
7. 99.4

Provide each entry's residual activity from the list below.
1. CO[C@@H]1[C@H](N(C)C(=O)c2ccccc2)C[C@H]2O[C@]1(C)n1c3ccccc3c3c4c(c5c6ccccc6n2c5c31)C(=O)NC4
2. COc1ccc(Cl)cc1NC(=O)Nc1cc(C)nc2ccccc12

Result:
1. 101
2. 101
